Measured recombinant barcode read abundance (log10), listed per entry for reference.
# ASSAY PROTOCOL: recombinant barcode read abundance after kanamycin selection (control-corrected) (log10(CPM+1)); higher = more efficient recombination; sequences stand for … in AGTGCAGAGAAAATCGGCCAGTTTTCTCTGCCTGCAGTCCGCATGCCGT…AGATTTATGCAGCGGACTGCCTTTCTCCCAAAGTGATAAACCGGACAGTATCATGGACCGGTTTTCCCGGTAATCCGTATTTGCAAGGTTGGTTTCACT; site = the 11-nt target

Known results for sequences:
RESIDUE SEQUENCE: GTATGATCTTGGGTTCTAACCTGTTGCAT (site GTATGATCTAT)
OBSERVED: 0.807
--
RESIDUE SEQUENCE: GTACCTTCTTGGGTTCTAACCTGTTGCCT (site GGAGCTTCTAG)
OBSERVED: 0.0858
--
RESIDUE SEQUENCE: GCTCGTCCTTGGGTTCTAACCTGTTGCAT (site GCTGGACCTAT)
OBSERVED: 0.0399
--
RESIDUE SEQUENCE: TTACGTACTTGGGTTCTAACCTGTTGCCT (site GTACGTACTAG)
OBSERVED: 0.19

Q: Supply measured recombinant barcode read abundance (log10) of TGAGTGCCTTGGGTTCTAACCTGTTGCTT (site TGAGTCCCTAA) in your reply.
A: 0.116

====

# ASSAY PROTOCOL: recombinant UMI read abundance after kanamycin selection (control-corrected) (log10(CPM+1)); higher = more efficient recombination; extreme values may be limits of the assay; sequences stand for … in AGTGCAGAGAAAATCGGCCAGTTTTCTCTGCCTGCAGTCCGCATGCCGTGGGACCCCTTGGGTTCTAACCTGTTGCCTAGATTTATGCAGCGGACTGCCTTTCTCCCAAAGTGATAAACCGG…AGGTTGGTTTCACT; site = the 11-nt donor
Measured recombinant UMI read abundance (log10), listed per entry for reference.
Write the value as a bare number.

Known results for sequences:
RESIDUE SEQUENCE: AGCCTTTCATGGACCGGTTTTCCCGGTAATCCGTATTTGAT (site AGCCTTTCTAT)
recombinant UMI read abundance (log10): 0
--
RESIDUE SEQUENCE: AACTCAGCATGGACCGGTTTTCCCGGTAATCCGTATTTGGG (site AACTCAGCTCC)
recombinant UMI read abundance (log10): 0.0924
--
RESIDUE SEQUENCE: AGCAAGACATGGACCGGTTTTCCCGGTAATCCGTATTTGGA (site AGCAAGACTTC)
recombinant UMI read abundance (log10): 1.8
--
RESIDUE SEQUENCE: ACACTAACATGGACCGGTTTTCCCGGTAATCCGTATTTGTC (site ACACTAACTGA)
recombinant UMI read abundance (log10): 2.12

Here is the next item to consider.
Q: Supply measured recombinant UMI read abundance (log10) of AATGGAACATGGACCGGTTTTCCCGGTAATCCGTATTTGCT (site AATGCAACTAG) in your reply.
A: 1.05

====

Measured recombinant UMI read abundance (log10), listed per entry for reference.
# ASSAY PROTOCOL: recombinant UMI read abundance after kanamycin selection (control-corrected) (log10(CPM+1)); higher = more efficient recombination; extreme values may be limits of the assay; sequences stand for … in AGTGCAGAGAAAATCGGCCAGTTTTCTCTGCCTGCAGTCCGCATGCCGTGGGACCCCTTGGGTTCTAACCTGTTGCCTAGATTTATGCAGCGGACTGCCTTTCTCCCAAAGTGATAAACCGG…AGGTTGGTTTCACT; site = the 11-nt donor
Write the value as a bare number.

RESIDUE SEQUENCE: CGTATACCATGGACCGGTTTTCCCGGTAATCCGTATTTGAA (site CGTATACCTTT)
OBSERVED: 0.0161
//
RESIDUE SEQUENCE: GGAGAGACATGGACCGGTTTTCCCGGTAATCCGTATTTGCC (site GGATAGACTGG)
OBSERVED: 0
//
RESIDUE SEQUENCE: ATCCGTCCATGGACCGGTTTTCCCGGTAATCCGTATTTGAT (site ATCCGTCCTAT)
OBSERVED: 0.0236
//
RESIDUE SEQUENCE: AGCATTCCATGGACCGGTTTTCCCGGTAATCCGTATTTGTC (site AGCATTCCTGA)
OBSERVED: 0
//
RESIDUE SEQUENCE: TTTGCGACATGGACCGGTTTTCCCGGTAATCCGTATTTGCT (site TTTGCGACTAG)
OBSERVED: 0.529

Q: Supply measured recombinant UMI read abundance (log10) of ACTAGTTCATGGACCGGTTTTCCCGGTAATCCGTATTTGAA (site ACTAGTTCTTT) in your reply.
A: 1.03

Q: Supply measured recombinant UMI read abundance (log10) of TATGCGGCATGGACCGGTTTTCCCGGTAATCCGTATTTGCT (site TCTGCGGCTAG) in your reply.
A: 0.00356

Q: Supply measured recombinant UMI read abundance (log10) of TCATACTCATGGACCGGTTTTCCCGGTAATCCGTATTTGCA (site TCATACTCTTA) in your reply.
A: 0

Q: Supply measured recombinant UMI read abundance (log10) of AGGACGACATGGACCGGTTTTCCCGGTAATCCGTATTTGAC (site AGGACAACTGT) in your reply.
A: 2.09

Q: Supply measured recombinant UMI read abundance (log10) of CCGAGTCCATGGACCGGTTTTCCCGGTAATCCGTATTTGAA (site CCGAGTCCTTT) in your reply.
A: 0.417

Q: Supply measured recombinant UMI read abundance (log10) of CACTTGGCATGGACCGGTTTTCCCGGTAATCCGTATTTGCA (site CACTTGGCTTT) in your reply.
A: 0.0216

Q: Supply measured recombinant UMI read abundance (log10) of TAGTATACATGGACCGGTTTTCCCGGTAATCCGTATTTGCA (site TAGCATACTTG) in your reply.
A: 1.11

Q: Supply measured recombinant UMI read abundance (log10) of CCCTAACCATGGACCGGTTTTCCCGGTAATCCGTATTTGAA (site CCCTAACCTTT) in your reply.
A: 0.0156

Q: Supply measured recombinant UMI read abundance (log10) of AAACGCACATGGACCGGTTTTCCCGGTAATCCGTATTTGTG (site AAACGCACTCA) in your reply.
A: 0.245

Q: Supply measured recombinant UMI read abundance (log10) of TAGAAATCATGGACCGGTTTTCCCGGTAATCCGTATTTGCG (site TAGGAATCTCG) in your reply.
A: 1.44

Q: Supply measured recombinant UMI read abundance (log10) of AGAGACGCATGGACCGGTTTTCCCGGTAATCCGTATTTGAG (site AGAGACGCTCT) in your reply.
A: 2.67

Q: Supply measured recombinant UMI read abundance (log10) of GGGCAGGCATGGACCGGTTTTCCCGGTAATCCGTATTTGGG (site GGGCAGGCTCC) in your reply.
A: 0.0905

Q: Supply measured recombinant UMI read abundance (log10) of TAATCTACATGGACCGGTTTTCCCGGTAATCCGTATTTGAG (site TAATCTACTCT) in your reply.
A: 0.521

====

# ASSAY PROTOCOL: recombinant barcode read abundance after kanamycin selection (control-corrected) (log10(CPM+1)); higher = more efficient recombination; sequences stand for … in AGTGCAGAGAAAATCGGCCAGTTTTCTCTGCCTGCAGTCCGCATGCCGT…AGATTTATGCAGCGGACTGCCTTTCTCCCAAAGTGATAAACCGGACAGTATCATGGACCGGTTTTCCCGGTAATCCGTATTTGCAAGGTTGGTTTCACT; site = the 11-nt target
Ranges used to classify recombinant barcode read abundance (log10): interval 1 (below 0.05), interval 2 (0.05 to below 0.3), interval 3 (0.3 or more)

Before answering, review these 3 worked examples.
RESIDUE SEQUENCE: TCGGAGTCTTGGGTTCTAACCTGTTGCTT (site TCGGAGTCTAC)
CATEGORY: interval 3

RESIDUE SEQUENCE: TACTACCCTTGGGTTCTAACCTGTTGCGT (site TACTACCCTAC)
CATEGORY: interval 3

RESIDUE SEQUENCE: AGCGAATCTTGGGTTCTAACCTGTTGCCT (site AGGGAATCTAG)
CATEGORY: interval 3

Q: Lab note: which band did CGTTCAACTTGGGTTCTAACCTGTTGCCT (site CGTTCAACTAG) land in?
A: interval 2

Q: Lab note: which band did CGCCTCGCTTGGGTTCTAACCTGTTGCCT (site CGCCTCACTAG) land in?
A: interval 2

Q: Lab note: which band did GGGGACCCTTGGGTTCTAACCTGTTGCGC (site GGGGACCCTCC) land in?
A: interval 1

Q: Lab note: which band did GGGTTCCCTTGGGTTCTAACCTGTTGCCT (site GGGTTCGCTAG) land in?
A: interval 1

Q: Lab note: which band did TTCAAGGCTTGGGTTCTAACCTGTTGCCT (site TTCAAGTCTAG) land in?
A: interval 3

Q: Lab note: which band did ACGTCGTCTTGGGTTCTAACCTGTTGCCT (site AGGTCGTCTAG) land in?
A: interval 2

Q: Lab note: which band did GGACGTGCTTGGGTTCTAACCTGTTGCCT (site CTCTCGTCTCC) land in?
A: interval 1
